# EXPERIMENTAL_TARGET: T1, VPAC2 receptor (UniProt P41587 24-438, limits assumed)
# T1 sequence (looked up): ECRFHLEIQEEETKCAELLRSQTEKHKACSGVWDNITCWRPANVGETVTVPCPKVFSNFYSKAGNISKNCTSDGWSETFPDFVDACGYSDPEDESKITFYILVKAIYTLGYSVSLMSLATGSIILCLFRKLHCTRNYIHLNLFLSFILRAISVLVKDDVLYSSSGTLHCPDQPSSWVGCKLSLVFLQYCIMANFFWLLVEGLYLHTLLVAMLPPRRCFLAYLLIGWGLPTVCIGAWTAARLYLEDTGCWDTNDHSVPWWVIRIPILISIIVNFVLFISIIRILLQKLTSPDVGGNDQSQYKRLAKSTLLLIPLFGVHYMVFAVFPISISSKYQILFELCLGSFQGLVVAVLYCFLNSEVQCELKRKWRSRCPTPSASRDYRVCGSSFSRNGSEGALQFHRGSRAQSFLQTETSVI
# PROCEDURE_SUMMARY: cell-based or functional assay
Primed or numbered codes have the meaning given here. Where no end group is shown, it is not given here. [ ]: non-standard residue; d: D form. APC″ = 3-aminopyrrolidine-4-carboxylic acid (cyclic β-amino acid); ACPC″ = 2-aminocyclopentanecarboxylic acid (x in the sequences); APC = 3-aminopyrrolidine-4-carboxylic acid; ACPC = 2-aminocyclopentanecarboxylic acid; β3hY = N[C@H](CC(=O)O)Cc1ccc(O)cc1; β3hQ = NC(=O)CC[C@H](N)CC(=O)O; β3hK = NCCCC[C@H](N)CC(=O)O; β3hV = CC(C)[C@H](N)CC(=O)O; βAla = NCCC(=O)O
MEASURED_PARAMETER: EC50 vpac2 (Molar), cell-based cAMP assay (nM)

BINDER: Ac-H[ACPC]DA[β3hV]FTENYTKLRKQLAA[APC]KY[ACPC]NDL[β3hK]KG[βAla]T (not fully specified (C-terminus); printed as Ac-HxDAvFTENYTKLRKQLAAzKYxNDLkKGgT) [LBT-V210]
NUMERIC_VALUE: 0.859

I. Ac-H[ACPC]DA[ACPC]FTENYTKLRKQLAA[APC]KY[ACPC]NDL[β3hK]KG[βAla]T (not fully specified (C-terminus); printed as Ac-HxDAxFTENYTKLRKQLAAzKYxNDLkKGgT) [LBT-V208]
II. Ac-H[ACPC″]DA[ACPC″]FTE[ACPC″][β3hY]TKLRK[β3hQ]LAA[APC″]KY[ACPC″]NDL[β3hK]KG[βAla]T (not fully specified (C-terminus); printed as Ac-HxDAxFTExyTKLRKqLAAzKYxNDLkKGgT) [LBT-V218]
Which value of EC50 vpac2 (Molar), cell-based cAMP assay is numerically greater: that of I or that of II ? # respond with the chosen item's label II
(II: 1.02 nM, I: 0.646 nM)
